System: Mycobacterium tuberculosis
assay text: Antimicrobial activity against Mycobacterium tuberculosis H37Rv by Alamar blue assay
Type: functional
measurement type: MIC (µg/mL)
Write the value in µg/mL as a bare number.

# assay system Mycobacterium tuberculosis: give MIC of "C[C@H]([C@@H]1CC[C@H](C)C(=O)O1)[C@H]1CC[C@@]2(C)C3=C(CC[C@]12C)[C@@]1(C)CCC(=O)C(C)(C)[C@@H]1CC3"
64

Give MIC for "C[C@H]([C@@H]1CC[C@H](C)[C@@H](O)O1)[C@H]1CC[C@@]2(C)C3=C(CC[C@]12C)[C@@]1(C)CC[C@@H](O)C(C)(C)[C@@H]1CC3" tested on Mycobacterium tuberculosis.
34

Fill in MIC for "C[C@H]([C@@H]1CC[C@H](C)C(=O)O1)[C@H]1CC[C@@]2(C)C3=C(CC[C@]12C)[C@@]1(C)CC[C@@H](O)C(C)(C)[C@@H]1CC3" tested with Mycobacterium tuberculosis.
58

This collection of values is drawn from ChEMBL document CHEMBL1151771.
